System: Staphylococcus aureus
experimentalProtocol: Antibacterial activity against Staphylococcus aureus subsp. aureus MTCC 1430 after 24 hrs by NCCLS M7-A6 serial dilution method
Format: functional
measuredProperty: -logMIC
Numbers only.

Hi! Can you tell me -logMIC for each of these compounds?
1. COc1ccc(-c2nnc(N3CCN(c4c(F)cc5c(=O)c(C(=O)O)cn(C6CC6)c5c4OC)CC3C)o2)cc1 (stereo not drawn)
2. CCn1cc(C(=O)O)c(=O)c2cc(F)c(N3CCN(c4nnc(-c5cccc([N+](=O)[O-])c5)o4)CC3)cc21
3. COc1c(N2CCN(c3nnc(-c4ccccc4Cl)o3)C(C)C2)c(F)cc2c(=O)c(C(=O)O)cn(C3CC3)c12 (stereo not drawn)

Given back:
1: 3.17; 2: 2.84; 3: 3.24

Give -logMIC for each listed item.
1. CCn1cc(C(=O)O)c(=O)c2cc(F)c(N3CCN(c4nnc(-c5ccc([N+](=O)[O-])cc5)o4)CC3)cc21
2. CCn1cc(C(=O)O)c(=O)c2cc(F)c(N3CCN(c4nnc(-c5ccc(OC)cc5)o4)CC3)cc21
3. COc1ccc(-c2nnc(N3CCN(c4c(F)cc5c(=O)c(C(=O)O)cn(C6CC6)c5c4OC)CC3C)o2)cc1OC (stereo not drawn)
4. O=C(O)c1cn(C2CC2)c2cc(N3CCNCC3)c(F)cc2c1=O
5. COc1c(N2CCN(c3nnc(-c4cccc([N+](=O)[O-])c4)o3)C(C)C2)c(F)cc2c(=O)c(C(=O)O)cn(C3CC3)c12 (stereo not drawn)

Given back:
[3.63, 3.2, 3.36, 3.16, 3.25]
